MEASUREMENT NOTES: yeast display, Sf9 membrane polyspecificity reagent, FACS + sequencing; frameworks hold sequencing errors
ASSAY METRIC: polyreactivity (PSR sort gate)

Example entries begin here.
SEQUENCE DATA | polyreactivity (PSR sort gate)
QVQLVESGGGLVQAGGSLRLSCAASGFIFSRYAMGWYRQAPGKEREFVAANSWSGGRTYYADSVKGRFTISRDNAKNTVYLQMNSLKPEDTAVYFCAARGYYPARHGTGGYWGQGTQVTVSS | high polyreactivity
QVQLVESGGGIVQAGGSLRLSCAASGRTFAYNVMGWYRHAPGKERELVAGISFGAGSTYYADSVKGRFTISRDNAKNTVYLQMNSLKPEDTAVYYCATRRRGTRYPRGYDYWGQGTQVTVSS | high polyreactivity
QVQLVESGGGLVQAGGSLRLSCAASGFTFEENAMGWYRQAPGKERELVAAINWSGGNTYYADSVKGRFTISRDNAKNTVYLQMNSLKPEDTAVYYCAADSPRYYYWVGPYYGYDYWGQGTQVTVSS | high polyreactivity
QVQLVESGGGLVKAGGSLRLSCAASGITFRKYAMGWYRQAPGKERELVAAITAGGGRTFYADSVKGRFTISRDNAKNTVYLQMNSLKPEDTAVYYCNADLGIGYDYWGQGTQVTVSS | high polyreactivity
QVHLVESGGGLFQAGGSLRISCAASGSIFRFNVMGWYRQAPGKERELVAAITRGDSTNYADSVKGRFTISRDNAKNTVYLQMNSLKPEVTAVYYCAAGFYYYLRDHDYWGQGTQVTVSS | low polyreactivity

Turning to the following sequence.
Problem: polyreactivity (PSR sort gate) lookup needed for "QVQLVESGGGLVQAGGSLRLSCAASGRTFSAYAMGWYRQAPGKERELVARITSVDSTNYADSVKGRFTISRDNAKNTVYLQMNSLKPEDTAVYYCNATFGYPFVEYDDYWGQGTQVTVSS" , thanks.
Result: low polyreactivity

----------
MEASUREMENT NOTES: yeast display, Sf9 membrane polyspecificity reagent, FACS + sequencing; frameworks hold sequencing errors
ASSAY METRIC: polyreactivity (PSR sort gate)

# example entries with known answers
SEQUENCE DATA | ASSAY METRIC | TEST RESULT
QVQLVESGGGLVQAGGSLRLSCAASGSIFNYNAMGWYRQAPGKERELVATINKRAGRTYYADSVKGRFTISRDNAKNTVYLQMNSLKPEDTAVYYCAALHSGRVQNFDYWGQGTQVTVSS | polyreactivity (PSR sort gate) | high polyreactivity
QVQLVESGGGLVQAGGSLRLSCAASGRIFRYYAMGWYRQAPGKERELVASSTYYADSVKGRFTISRDNAKNTVYLQMNSLKPEDTAVYYCAAVKGTRGWYDYWGQGTQVTVSS | polyreactivity (PSR sort gate) | high polyreactivity
QVQLVESGGGLVQAGGSLRLTCAASGSIFGGYGMGWYRQAPGKERELVAAITSGTSTYYADSVKGRFTISRDNAKNTVYLQMNSLKPEDTAVYYCAARPYPHSAYEGDYWGRGTQVTVSS | polyreactivity (PSR sort gate) | low polyreactivity
QVQLVESGRGLVQAGGSLRLSCAASGFIFRYYAMGWYRQAPGKERELVAAINASGGRTYYADSVKGRFTISRDNARNSVYLQMNSLKPEDTAVYYCAAYRSYQTFDYWGQGTQVNVSS | polyreactivity (PSR sort gate) | high polyreactivity
QVQLVESGGGLVQAGGSLRLSCAASGRTFSTYTMGWYRPAPGNERELVAAINWSGTSTYYADSVKGRFTISRDTAKNTVYLQMNSLKPEDTAFYYCNAGKWAYRWGYELNYWGQGTQVTVSS | polyreactivity (PSR sort gate) | high polyreactivity

Problem: I would be grateful if you could share the reported polyreactivity (PSR sort gate) for "QVQLVESGGGLVQAGGSLRLSCASSGSTLEVNAMGWYRQAPGKERELVAAITSGCSTNYADSVKGRFTISRDNAKNTVYLQMNSLKPEDTAVYYCNALAYYGMDYWGQGTQVTVSS" .
Result: low polyreactivity

Problem: Lookup "QVQLVESGGGLVHAGGSLRLSCAASGLIFPRYAMGSYRQAPGKERELVAAISRSGGNTYYADSVKGRFTISRDNAKNTVYLQMNSLKPEDTAVYYCAAYFSTAPKSQYKLDYWGQGTQVTVSS"
Result: high polyreactivity

Problem: Consider next the sequence "QVQLVESRGGLVQAGGSLRLSCAASGRIFSWYSMGWYRQPPGTERELVAGISWIGGSTYYADSVKGRFTFSRDNAKNTVYLQMISLKPEDTAVYYCNAEYFGEYRDYGYWGQGTQVTVSS" in the same way.
Result: low polyreactivity

Problem: Now try "QVQLVESGGGLVQAGGILRLSCAASGSTTYYYAMGWYRQQPGKDRELVATISTTGAGTYYADSVKGRFTISRDNAKNTVYLQMNSLKPEDTAVYYCAKDGKASRDDAEYDYWGQGTQVTVSS" .
Result: low polyreactivity

Problem: Cool, now "QVQLVESGGGLVQAGGSLRLSCAAYGRIFRYNAMGWSTQAPGKERELVAAISRGGSSTYYADSVKGRFTISRDNAKNTVYLQMNSLQPEDTAVYYCNARSVVREFNNWGQGTQVTVSS"
Result: high polyreactivity

Problem: What would you report for "QVHLVESGGGLDQAGGTLRLSCAATGSIIQSYAMGWYRQAPGKESELVAAITARGTSTYYADSVKGRFTISRDNAKNTVYLQMNSLKPEETAVYYCTTDRSRSPGDVECQSDIKRDYWGQGTQVTVSS" ?
Result: low polyreactivity

----------
MEASUREMENT NOTES: yeast display, Sf9 membrane polyspecificity reagent, FACS + sequencing; frameworks hold sequencing errors
ASSAY METRIC: polyreactivity (PSR sort gate)

For orientation, consider the following solved cases.
SEQUENCE DATA | polyreactivity (PSR sort gate)
QVQLVESGGGLVQAGGSLRLSCAASGRTFYHYAMGWYRQAPGKESELVAAIDWSTASTYYADSVKGRFTISRDNAKNTVYLQMNSLKPEDTAVYYCATDTAILINFVLYDYWGQGTQVTVSS | low polyreactivity
QVQLVESGGGLVQAGGSLRLSCAASGFTFLTYLMGWYRQAPGKERELVASISGSGGTTYYADSVKGRFTISRDNAKNTVYLQMNSLKPEDTAVYYCAASGRYRRYYKFNYWGQGTQVTVSS | high polyreactivity
QVQLVESGGGLVQPGGSLRLSCAASGFIFPTNVMGWSRQAPGKEREFVASITWRGGGTYYADSVKGRFRISRDNAKNTVYVQMNSLKPEDTAVYYCAAGRSWSSYWKYDYWGQGTQVTVSS | low polyreactivity
QVQLVEAGRGLVQAGGSLRLSCAASGRTIDHYAMGWYRQAPGKERELVAAMSPTGGSTYYADSVKGRFTISRDNAKNSVYLQMNSLKPEDTAVYYCNARYYFYSATVDRYYHFYYWGQGTQVTVSS | high polyreactivity
QVQLEESGGGIVQAGGSLRLSCAASGITFRFYAMGWYRPAPGKERELVAAITRSGSSTYYADSVKGRFTISRDNAKNTVYLQMNSLKPEDTAVYYCATDPYWNRPYVKYDYWGQGTLVTVSS | high polyreactivity
QVQLVESGGGLVQAGGSLRLSCAASGSISYANALGWYRQAPGKERELVAAISGSGGSTYYADSVKGRFTISRDNAKNTVYLQMNSLKPEDTAVYYCAARGFPPGDEWHPYDYWGQGTQVTVSS | low polyreactivity
QVQLVESGGGLVQAGGTLRLSCAASGYIFFPYAMGWYRQAPGKERELVAAISGSGTSTYYADSVKGRFTISRDNAKNTVYLQMNSLKPEDTAVYYCAAKYGQYDYDYWGQGTQVTVSS | low polyreactivity
QVQLVESGGGLVQAGGSLRLSCAASGFIFDKYAMGWYRQAPGKERELVATITSGGSTYYADSVKGRFTISRDNAKNTVYLQMNSLKPEDTAVYYCAALDYGYRWYRYYYWGQGTQVTVSS | high polyreactivity

Problem: Bench note: what polyreactivity (PSR sort gate) did "QVQLVESGGGLVQAGGSLRLSCAASGSTSRKYTMGWYRQAPGKERELVATISWSGGSTYYADSVKGRFTISRDNAKNTVYLQMNSLKPEDTAVYYCAAATKVRNLGSFESPGPEVDYWGQGTQVTVSS" show?
Result: high polyreactivity

Problem: Do the same for "QVQLVETGGGLVQAGGSLRLSCAASGNTFVLYAMGWYRQAPGKERELVAAIRRGVRTYADSVKGRFTISRDNAKNTFYLQMNSLIPDDTAVYYCAAYYVFLDNDYWGHGTQVTVSS" please
Result: high polyreactivity

Problem: Then what about the sequence "QVQLVESGGGLVQAGGSLRLSCAASGSTFFSKAMGWSRQEPGKERELVAAISRSGATTSYADSVKGRFTISRDNAKNTVYLQMNSLKPEDTAVYYCAVGRRYYQDYDYSGQGTQVTVSS" ?
Result: high polyreactivity

Problem: "QVQLVESGGGLVQAGGSLRLSCAASGSIFDTYVMGWYRQAPGKERELVAAISSVSSTYADSVKGRFTISRDNAKNTVYLQLNSLKPVDTAVYYCAADSRSPGHDYWGQGTQVTVSS" ?
Result: low polyreactivity
